# TESTED_TARGET: 6His-PEG5-WT 33mer Fragment (wildtype 33-mer epitope without alkyne click handle)
# Sequence (peptide, as listed by the source): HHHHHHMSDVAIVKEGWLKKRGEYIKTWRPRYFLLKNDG
# EXPERIMENT_SUMMARY: fluorescence polarization, in solution
Where no end group is shown, it is not given here. [ ]: non-standard residue; d: D form.
VALUE_KIND: pKd
Hey, just a heads up that pKd is the negative log base 10 of the concentration in molar.

// query Please look at this binder and report its pKd: [dY][dL][dE][dA][dF] (also: fluorescence polarization label not described) [yleaf (SEQ ID NO: 43) anchor ligand 4]
// result 5.55
